- assay_target: HIV-1 Env of isolate PVO.4 (HIV-1)
- assay_comment: cell-based or functional assay
quantity: IC50, pseudovirus neutralization (TZM-bl)
# include the unit after the value

Known results for binders:
1503_H05 (PG16) (TCN-119) (antibody, V domains shown) VH: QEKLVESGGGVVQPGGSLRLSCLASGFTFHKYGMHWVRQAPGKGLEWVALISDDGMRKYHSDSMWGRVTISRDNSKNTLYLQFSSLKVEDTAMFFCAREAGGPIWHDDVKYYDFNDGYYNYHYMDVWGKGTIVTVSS VL: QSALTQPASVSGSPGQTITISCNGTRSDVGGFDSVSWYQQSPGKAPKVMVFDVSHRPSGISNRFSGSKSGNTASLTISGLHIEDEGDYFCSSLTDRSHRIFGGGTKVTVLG: 11 µg/mL
1456_A12 (PG16) (TCN-117) (antibody, V domains shown) VH: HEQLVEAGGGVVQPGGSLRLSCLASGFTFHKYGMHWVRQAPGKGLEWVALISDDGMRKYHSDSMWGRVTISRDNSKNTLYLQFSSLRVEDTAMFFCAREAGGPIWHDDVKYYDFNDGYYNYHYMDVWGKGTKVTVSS VL: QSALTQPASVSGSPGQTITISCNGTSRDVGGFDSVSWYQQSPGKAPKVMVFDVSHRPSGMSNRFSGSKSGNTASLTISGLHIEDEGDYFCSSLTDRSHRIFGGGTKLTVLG: 10.4 µg/mL

Below: the item to evaluate.
Request: Given the binder 1469_M23 (PG16) (TCN-118) (antibody, V domains shown) VH: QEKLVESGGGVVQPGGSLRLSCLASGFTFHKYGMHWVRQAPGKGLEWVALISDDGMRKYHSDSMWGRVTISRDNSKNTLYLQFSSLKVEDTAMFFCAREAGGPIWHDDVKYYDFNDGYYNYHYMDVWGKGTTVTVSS VL: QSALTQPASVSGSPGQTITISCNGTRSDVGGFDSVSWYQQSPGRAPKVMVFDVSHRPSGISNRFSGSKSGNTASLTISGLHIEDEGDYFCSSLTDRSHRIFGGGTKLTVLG , what is its reported IC50, pseudovirus neutralization (TZM-bl)?
Result: 21.2 µg/mL

Values were extracted from patent US20200024330A1.
